Test system: platelet thromboembolism in mice
protocolDetails: "In vivo" thrombosis model in the mouse (collagen + epinephrine i.v.)
Set-up: species or system CD-1 Charles River male mice
testContext: 30 mg/kg intraperitoneal, suspension in 0.5% carboxymethylcellulose; one to four hours after administration; i.v. 15 ug collagen and 1.8 ug epinephrine
metricName: Protection % (%)
I only need the number, in %, no unit after it.

Task item: Name the recorded Protection % of the molecule listed here: COC(=O)C1=C(C)NC(C)=C(C(=O)OCCN2C(=O)c3ccccc3S2(=O)=O)C1C (stereo not shown)
Reply: 0

Task item: Output measured Protection % for this item: OCCN(CCO)c1nc(N2CCCCC2)c2nc(N(CCO)CCO)nc(N3CCCCC3)c2n1 [DIPYRIDAMOL, reference compound]
Reply: 30

Task item: Name the recorded Protection % of the molecule listed here: CCCCC1C(C(=O)OC)=C(C)NC(C)=C1C(=O)OCCN1C(=O)c2ccccc2S1(=O)=O (stereo not shown)
Reply: 12

Task item: Read the entry CCOC(=O)C1=C(C)NC(C)=C(C(=O)OCCN2C(=O)c3ccccc3S2(=O)=O)C1C (stereo not shown) and write its reported Protection %.
Reply: 50

Task item: Provide only the value of recorded Protection % for COC(=O)C1=C(C)NC(C)=C(C(=O)OCN2C(=O)c3ccccc3S2(=O)=O)C1C (stereo not shown)
Reply: 20

Task item: Find the measured Protection % of CC1=C(C(=O)OCCNC(=O)c2ccccc2O)C(C)C(C(=O)OCCN2C(=O)c3ccccc3S2(=O)=O)=C(C)N1 (stereo not shown) and report it.
Reply: 62

Task item: Report Protection %, nothing else, for this molecule: CCOC(=O)C1=C(C)NC(C)=C(C(=O)OCN2C(=O)c3ccccc3S2(=O)=O)C1C (stereo not shown)
Reply: 30
